Molecular target: Phenylethanolamine N-methyltransferase (Bos taurus)
Sequence (P10938 whole entry): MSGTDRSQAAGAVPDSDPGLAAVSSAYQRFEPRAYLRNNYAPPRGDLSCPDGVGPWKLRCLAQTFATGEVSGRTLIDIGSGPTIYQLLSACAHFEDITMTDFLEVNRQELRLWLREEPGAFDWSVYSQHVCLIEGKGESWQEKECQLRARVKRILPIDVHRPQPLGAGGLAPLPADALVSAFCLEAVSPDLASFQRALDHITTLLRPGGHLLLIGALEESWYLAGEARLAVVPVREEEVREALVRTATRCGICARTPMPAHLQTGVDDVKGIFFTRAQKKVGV
I'd be grateful if you could share measured pKi for these entries.
pKi here is simply -log10 of the concentration when that concentration is written in mol/L.

Ask: Any idea what its pKi is? The compound is NC1C2CC[C@H]1c1ccccc12 (some centres not stated)
Reply: 3.59

Ask: What does the record list as pKi for N[C@@H]1CC2CC1c1cc(C(F)(F)F)ccc12 (some centres not stated) ?
Reply: 3.69

Ask: Which measured pKi value corresponds to N[C@H]1C2CCC1c1ccc(C(F)(F)F)cc1C2 (some centres not stated) ?
Reply: 2.74

Ask: Could you share which pKi value was measured for N[C@H]1C2CCC1c1cc(C(F)(F)F)ccc1C2 (some centres not stated) ?
Reply: 3.10

Ask: Consider the compound shown here: N[C@H]1C2CCC1c1cccc(C(F)(F)F)c1C2 (some centres not stated) What is its recorded pKi?
Reply: 2.84

Ask: Can you look up the measured pKi of N[C@@H]1C2CCC1c1ccccc1C2 (some centres not stated) for me?
Reply: 3.97

Ask: Which pKi is reported for this compound? N[C@H]1C2CCC1c1c(cccc1C(F)(F)F)C2 (some centres not stated)
Reply: 3.72

###

Target: Phenylethanolamine N-methyltransferase (Bos taurus)
Sequence (P10938 whole entry): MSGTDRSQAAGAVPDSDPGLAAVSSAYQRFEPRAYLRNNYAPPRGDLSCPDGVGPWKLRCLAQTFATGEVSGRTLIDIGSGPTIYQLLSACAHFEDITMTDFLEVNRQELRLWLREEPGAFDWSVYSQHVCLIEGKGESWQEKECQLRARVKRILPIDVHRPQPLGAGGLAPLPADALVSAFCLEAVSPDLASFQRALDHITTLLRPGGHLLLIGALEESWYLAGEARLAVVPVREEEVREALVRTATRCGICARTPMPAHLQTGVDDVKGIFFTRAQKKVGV
For each of the molecules below, state its pKi.
Note on pKi: it is the negative log10 of concentration, concentration in mol/L.

Ask: Query: pKi; subject: N[C@H]1C2CCC1c1c2cccc1C(F)(F)F (some centres not stated)
Reply: 4.92

Ask: Given NC1CCc2ccccc2C1 (configuration not stated) , state its recorded pKi.
Reply: 4.82

Ask: Which pKi reading was recorded for the molecule N[C@@H]1CC2CCC1c1ccccc12 (some centres not stated) ?
Reply: 2.89

Ask: Look at this molecule and give its reported pKi. N[C@@H]1C2CCC1c1cc(C(F)(F)F)ccc1C2 (some centres not stated)
Reply: 4.50

Ask: So what's the measured pKi for this one? N[C@@H]1C2CCC1c1c(cccc1C(F)(F)F)C2 (some centres not stated)
Reply: 4.29

Ask: Request the reported pKi associated with N[C@H]1C2CCC1c1ccccc1C2 (some centres not stated)
Reply: 2.05

Ask: Give the measured pKi of N[C@@H]1CC2CC1c1c2cccc1C(F)(F)F (some centres not stated) .
Reply: 3.46
